Test: AUC (0 to infinity) in ICR mouse at 2 mg/kg, po by LC-MS/MS analysis
Format: ADME, organism-based
Parameters: dose 2 mg/kg, time infinity, route oral
Conditions: in vivo
recorded_metric: AUC(0-inf) (ng·h/mL)
Give the number; ng·h/mL is assumed, so skip it.

# input molecule: CCCCC(CC)Cn1cnc2c(=O)[nH]c(Cc3ccc(OC)cc3)nc21 (stereo unspecified) ; wanted: its AUC(0-inf)
646

----------
Molecular target: cGMP-specific 3',5'-cyclic phosphodiesterase (Homo sapiens)
pIC50: −log10 of the molar value.
recorded_metric: pIC50

Looking for the measured pIC50 of CCCCC(CC)Cn1cnc2c(=O)[nH]c(Cc3ccc(OCc4ccccc4)cc3)nc21 (stereo unspecified) , can you help?
< 3.30

----------
Assay: Cmax in ICR mouse at 2 mg/kg, po by LC-MS/MS analysis
Assay type: ADME, organism-based
Set-up: dose 2 mg/kg, route oral
Conditions: in vivo
recorded_metric: Cmax (ng/mL)
Quick note: give the figure in ng/mL, leave out the unit.

Record request: Cmax value, item CCCCC(CC)Cn1cnc2c(=O)[nH]c(Cc3ccc(OC)cc3)nc21 (stereo unspecified)
511

----------
Reported pIC50, cGMP-dependent 3',5'-cyclic phosphodiesterase (Homo sapiens, UniProt O00408).
As a rule, pIC50 stands for the negative log10 of the concentration, concentration in M.

compound: CCCCn1cnc2c(=O)[nH]c(Cc3ccccc3)nc21
recorded_number: 5.36

compound: CCCCCCCCn1cnc2c(=O)[nH]c(Cc3ccccc3)nc21
recorded_number: 5.37

compound: CCCCCCCCn1cnc2c(=O)[nH]c(Cc3ccc(OCc4ccccc4)cc3)nc21
recorded_number: 5.58

compound: CCCCn1cnc2c(=O)[nH]c(Cc3ccc(OCc4ccccc4)cc3)nc21
recorded_number: 5.26

compound: CCCCC(CC)Cn1cnc2c(=O)[nH]c(Cc3ccccc3)nc21 (stereo not drawn)
recorded_number: 5.91

Name the recorded pIC50 for CC(c1cccc2ccccc12)N1C=NC2C(=O)NC(Cc3ccccc3)=NC21 (stereo not drawn) .
6.24

How about this compound: CC(CCc1ccccc1)n1cnc2c(=O)[nH]c(Cc3ccccc3)nc21 (stereo not drawn)
6.51

----------
Target: cAMP and cAMP-inhibited cGMP 3',5'-cyclic phosphodiesterase 10A (Homo sapiens, UniProt Q9Y233)
Sequence (Q9Y233 whole entry): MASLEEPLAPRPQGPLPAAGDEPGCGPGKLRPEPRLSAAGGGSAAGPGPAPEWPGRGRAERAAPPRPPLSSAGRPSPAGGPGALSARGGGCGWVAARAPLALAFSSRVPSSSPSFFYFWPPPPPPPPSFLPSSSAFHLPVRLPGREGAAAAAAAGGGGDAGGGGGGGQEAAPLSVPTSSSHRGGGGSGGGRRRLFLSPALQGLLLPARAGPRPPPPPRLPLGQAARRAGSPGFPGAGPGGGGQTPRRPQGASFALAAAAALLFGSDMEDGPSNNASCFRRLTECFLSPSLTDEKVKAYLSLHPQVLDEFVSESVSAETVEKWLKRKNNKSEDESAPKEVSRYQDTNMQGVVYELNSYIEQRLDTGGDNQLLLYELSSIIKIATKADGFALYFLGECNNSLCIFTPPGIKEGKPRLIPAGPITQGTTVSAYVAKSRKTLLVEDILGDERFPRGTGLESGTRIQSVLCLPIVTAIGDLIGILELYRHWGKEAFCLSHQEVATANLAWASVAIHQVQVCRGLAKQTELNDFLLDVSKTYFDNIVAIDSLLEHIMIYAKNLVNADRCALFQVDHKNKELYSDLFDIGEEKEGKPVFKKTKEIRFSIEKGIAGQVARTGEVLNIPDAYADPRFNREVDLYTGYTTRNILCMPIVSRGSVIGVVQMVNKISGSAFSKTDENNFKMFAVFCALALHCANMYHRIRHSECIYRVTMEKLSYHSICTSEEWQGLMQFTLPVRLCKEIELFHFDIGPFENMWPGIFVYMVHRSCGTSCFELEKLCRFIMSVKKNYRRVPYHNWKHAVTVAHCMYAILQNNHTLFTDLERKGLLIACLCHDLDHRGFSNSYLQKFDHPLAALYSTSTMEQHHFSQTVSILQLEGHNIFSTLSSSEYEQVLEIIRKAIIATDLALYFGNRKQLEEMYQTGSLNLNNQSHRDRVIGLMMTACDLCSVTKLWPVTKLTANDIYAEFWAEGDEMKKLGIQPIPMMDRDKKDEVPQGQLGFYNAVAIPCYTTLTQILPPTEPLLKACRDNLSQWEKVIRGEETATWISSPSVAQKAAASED
recorded_metric: IC50

compound: CCCCC(CC)Cn1cnc2c(=O)[nH]c(Cc3ccc(OC)cc3)nc21 (configuration not stated)
IC50: > 500 µM

Bench note: what IC50 did CCCCC(CC)Cn1cnc2c(=O)[nH]c(Cc3ccc(OCc4ccccc4)cc3)nc21 (configuration not stated) show?
> 500 µM
